Ref: paper PMC2362650

Experiment: Plasma and urine pharmacokinetics (HPLC-UV) in patients after 60-min IV infusion
Type: in vivo, human
Details: human, plasma, intravenous, 6.6 mg, patient no. 11; 6.6 mg m-2; day 1 course 1; two-compartment model; read-out: MRT
measure: MRT (min)
API: value field is a number in min; no unit string.

Supply measured MRT of C[C@@](O)(/C=C/[C@H]1CC=CC(=O)O1)[C@@H](C[C@@H](O)\C=C/C=C\C=C\CO)OP(=O)(O)O [fostriecin] in your reply.
26.4

---

Assay: Plasma and urine pharmacokinetics (HPLC-UV) in patients after 60-min IV infusion
Format: in vivo, human
Details: human, plasma, intravenous, 6.6 mg, patient no. 12; 6.6 mg m-2; day 1 course 1; two-compartment model; read-out: MRT
measure: MRT

Supply measured MRT of C[C@@](O)(/C=C/[C@H]1CC=CC(=O)O1)[C@@H](C[C@@H](O)\C=C/C=C\C=C\CO)OP(=O)(O)O [fostriecin] in your reply.
37.8 min
